# credit: PubChem BioAssay (NCI)

Assignment: determine reported TGI for the given compounds.
# Test system: RXF 393 renal
# PROTOCOL DETAILS: NCI tumour cell line growth inhibition, 48 h
Respond numerically; units are µM and should not be typed.

stdin: For the compound shown here, CC1(C)C2CCC3=C(CCC4(C)C5C[C@](C)(C(=O)O)CC[C@]5(C)CC[C@]34C)[C@@]2(C)CC[C@@H]1O (stereo partly specified) , give the reported TGI.
stdout: 41.3

stdin: Fill blank: measured TGI of the compound CCCCc1c2c(nc3c1CCC/C3=C\c1ccccc1)C(=O)CCC2 is ____.
stdout: 33

stdin: Give the measured TGI of Cc1cc(I)cc(CN(C)CCCN2CCSCC2)c1O .
stdout: 39

stdin: Which value of TGI has been reported for CCN(CC)CCCC(C)Nc1c2ccc(Cl)cc2nc2ccc(OC)cc12 (stereo unspecified) in the records?
stdout: 2.53

====

Give TGI for every item shown.
# System: DU-145 prostate
# PROTOCOL DETAILS: NCI tumour cell line growth inhibition, 48 h

stdin: Param readout = TGI; param system = DU-145 prostate; param query = COc1cc(/C=C(\C#N)c2nc3ccccc3o2)ccc1O ; response: value
stdout: 65.1 µM

stdin: What reported TGI corresponds to CSc1ccc(C2=NN(C(=O)c3ccc(F)cc3)C(c3ccc(F)cc3)C2)cc1 (centres undefined) on DU-145 prostate?
stdout: 29.3 µM

stdin: Request body: readout TGI, system DU-145 prostate, query CN1C2CCC1CC(CCOC(c1ccc(F)cc1)c1ccc(F)cc1)C2 (centres undefined) . Return the value.
stdout: 33.5 µM

stdin: Request body: readout TGI, system DU-145 prostate, query Cc1cc(C)nc(NS(=O)(=O)c2ccc(NNc3c4ccccc4nc4c(C(=O)Nc5ccc(S(=O)(=O)Nc6ncccn6)cc5)cccc34)cc2)n1 . Return the value.
stdout: > 100 µM

stdin: Quick check: TGI on DU-145 prostate, item COc1cc(OCc2ccc3nc(-c4ccccc4)c(Cl)nc3c2)cc(OC)c1OC ?
stdout: > 100 µM

stdin: DU-145 prostate / TGI / O=[n+]1c2ccccc2n([O-])c2ccccc21 : value?
stdout: > 100 µM

stdin: Give recorded TGI with DU-145 prostate for the following compound: Cn1ccnc1CC(C)(O)c1ccccc1 (centres undefined)
stdout: > 100 µM

stdin: // fetch DU-145 prostate TGI for COC(=O)CCc1cc(OC)c2c(c1)C(C(=O)OC)C(c1ccc(OC)c(OC)c1)O2 (centres undefined)
stdout: > 100 µM

stdin: Query for DU-145 prostate: what TGI does the record show for CCN(CC)C1Oc2cc3c(cc2C(c2ccc(OC)cc2)C1C)OCO3 (centres undefined) ?
stdout: 76.4 µM

stdin: Requested read-out TGI, target or system DU-145 prostate, entry CC(=O)O[C@H]1CC[C@H]2[C@@H]3CCC4C(C)=NNC(=O)C4[C@H]3CC[C@]12C (some centres undefined)
stdout: > 100 µM

stdin: Lab request: please report TGI under test system DU-145 prostate for COc1cc(OC)cc(C2CC(=O)Nc3c2c(C)nn3-c2nc3ccccc3[nH]2)c1 (centres undefined)
stdout: 17.1 µM

stdin: # get_value(readout= TGI, system= DU-145 prostate) for NOCC(=O)O
stdout: > 100 µM

stdin: Give the reported TGI for CC(C)c1ccc(C(=O)Nc2nc3ccc(O)cc3s2)cc1 (system: DU-145 prostate).
stdout: > 100 µM

stdin: Param readout= TGI; system= DU-145 prostate; entry= CC[C@](O)(CC(=O)O[C@H]1C(=O)O[C@@H]2C[C@H]3C(C)=CC(=O)[C@@H](O)[C@]3(C)[C@H]3[C@@]4(O)OC[C@]32[C@@H]1[C@@H](C)[C@H]4O)C(C)C ; returns value.
stdout: < 0.01 µM

stdin: Could you share what TGI was measured for CCOC(=O)NNC(=O)C1CSC(c2ccccc2)N1C(C)=O (centres undefined) , tested on DU-145 prostate?
stdout: > 100 µM

stdin: So what TGI did CCOC(=O)Nc1nc2ccc(Cn3cccc3)cc2[nH]1 get with DU-145 prostate?
stdout: > 52.5 µM

stdin: API: value(readout=TGI, system=DU-145 prostate) for record Cc1oc2c(c1C)S(=O)(=O)C(C#N)=C(c1ccccc1)N2
stdout: > 100 µM

stdin: What value of TGI on DU-145 prostate does C[C@]12C[C@H](c3ccccc3)Nc3ccccc3N1C(c1ccccc1)=NO2 have?
stdout: > 100 µM

stdin: What measured TGI is associated with CCN(CC)C(=C(C(Cl)=C(Cl)Cl)[N+](=O)[O-])N(CC)CC on DU-145 prostate?
stdout: > 100 µM
